- system_tested: 5-hydroxytryptamine receptor 2B (Homo sapiens); note: assay procedure not described here
- Sequence (P41595 whole entry): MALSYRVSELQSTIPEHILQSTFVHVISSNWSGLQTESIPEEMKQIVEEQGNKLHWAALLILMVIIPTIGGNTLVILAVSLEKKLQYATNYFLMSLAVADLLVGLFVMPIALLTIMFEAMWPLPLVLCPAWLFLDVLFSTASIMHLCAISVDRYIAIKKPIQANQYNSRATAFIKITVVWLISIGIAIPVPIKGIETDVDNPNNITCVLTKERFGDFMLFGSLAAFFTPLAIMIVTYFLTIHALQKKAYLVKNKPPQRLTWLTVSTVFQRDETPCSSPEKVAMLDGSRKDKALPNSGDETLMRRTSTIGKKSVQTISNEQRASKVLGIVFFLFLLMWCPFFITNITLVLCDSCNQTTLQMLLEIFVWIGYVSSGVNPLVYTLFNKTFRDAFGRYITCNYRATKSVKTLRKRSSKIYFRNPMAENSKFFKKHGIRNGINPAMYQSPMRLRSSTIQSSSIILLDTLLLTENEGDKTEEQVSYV
- Format: functional, cell-based
quantity_kind: AC50

>  <compound>
CCc1c(Cl)c(O)c(Cl)c(O)c1C(=O)O[C@H]1[C@H](O)[C@H](OC)[C@H](OC/C2=C\C=C\C[C@H](O)/C(C)=C/[C@H](CC)[C@@H](O[C@@H]3OC(C)(C)[C@@H](OC(=O)C(C)C)[C@H](O)[C@@H]3O)/C(C)=C/C(C)=C/C[C@@H]([C@@H](C)O)OC2=O)O[C@@H]1C

>  <AC50>
> 30 µM

$$$$
>  <compound>
COc1ccc(CCN(C)CCCC(C#N)(c2cc(OC)c(OC)c(OC)c2)C(C)C)cc1OC (centres undefined)

>  <AC50>
> 30 µM

$$$$
>  <compound>
CCCSc1ccc2nc(NC(=O)OC)[nH]c2c1

>  <AC50>
> 10 µM

$$$$
>  <compound>
COc1ccc(CCNCC(O)COc2cccc(C)c2)cc1OC (centres undefined)

>  <AC50>
> 10 µM

$$$$
>  <compound>
C=CCc1ccccc1OCC(O)CNC(C)C (centres undefined)

>  <AC50>
> 30 µM

$$$$
>  <compound>
CC(C)=CCC/C(C)=C/C=C/C(C)=C/C=C/C(C)=C/C=C/C=C(C)/C=C/C=C(C)/C=C/C=C(\C)CCC=C(C)C

>  <AC50>
> 30 µM

$$$$
>  <compound>
O=C(O[C@H]1C[C@H]2CC[C@@H](C1)[N+]21CCCC1)C(O)(c1ccccc1)c1ccccc1

>  <AC50>
> 30 µM

$$$$
>  <compound>
CC(C[N+](C)(C)C)OC(N)=O (centres undefined)

>  <AC50>
> 10 µM

$$$$

Then there is this compound:
Can you share its AC50? I mean this compound: CC(=O)Nc1ccc(O)cc1
> 30 µM

====

AC50, Beta-2 adrenergic receptor (Homo sapiens, UniProt P07550), per-entry values.

>  <chemical_structure>
Cc1cn([C@H]2C=C[C@@H](CO)O2)c(=O)[nH]c1=O

>  <AC50>
> 10 µM

$$$$
>  <chemical_structure>
O=C1C(O)=C([C@H]2CC[C@H](c3ccc(Cl)cc3)CC2)C(=O)c2ccccc21

>  <AC50>
> 30 µM

$$$$
>  <chemical_structure>
COc1ccc2c3c1O[C@H]1C(=O)CC[C@@]4(O)[C@@H](C2)N(C)CC[C@]314

>  <AC50>
> 30 µM

$$$$

Then there is this compound:
Can you share its AC50? I mean this compound: CO[C@H]1C[C@@H]2CC[C@@H](C)[C@@](O)(O2)C(=O)C(=O)N2CCCC[C@H]2C(=O)O[C@H]([C@H](C)C[C@@H]2CC[C@@H](O)[C@H](OC)C2)CC(=O)[C@H](C)/C=C(\C)[C@@H](O)[C@@H](OC)C(=O)[C@H](C)C[C@H](C)/C=C/C=C/C=C/1C
> 10 µM

====

Measured AC50 values are reported for all entries that follow.
- system_tested: Gamma-aminobutyric acid receptor subunit alpha-1 (Rattus norvegicus); note: assay procedure not described here
- Sequence (P62813 whole entry): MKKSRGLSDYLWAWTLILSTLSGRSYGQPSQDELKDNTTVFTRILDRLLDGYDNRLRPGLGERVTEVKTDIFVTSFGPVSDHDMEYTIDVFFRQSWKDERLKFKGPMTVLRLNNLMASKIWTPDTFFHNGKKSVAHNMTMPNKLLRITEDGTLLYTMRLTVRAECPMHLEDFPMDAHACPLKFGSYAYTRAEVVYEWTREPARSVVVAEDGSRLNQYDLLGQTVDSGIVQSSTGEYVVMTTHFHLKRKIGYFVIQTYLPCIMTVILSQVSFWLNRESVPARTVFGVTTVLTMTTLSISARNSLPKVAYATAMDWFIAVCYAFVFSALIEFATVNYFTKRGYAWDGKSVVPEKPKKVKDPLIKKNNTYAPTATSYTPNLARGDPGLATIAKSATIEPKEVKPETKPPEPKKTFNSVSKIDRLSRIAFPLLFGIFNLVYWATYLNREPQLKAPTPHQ
- Format: functional

Here are 6 compounds together with their reported answers.
>  <compound>
c1ccc([C@H]2CN3CCSC3=N2)cc1

>  <system_tested>
Gamma-aminobutyric acid receptor subunit alpha-1 (Rattus norvegicus); note: assay procedure not described here

>  <AC50>
> 30 µM

$$$$
>  <compound>
CN(C)CCC=C1c2ccccc2C=Cc2ccccc21

>  <system_tested>
Gamma-aminobutyric acid receptor subunit alpha-1 (Rattus norvegicus); note: assay procedure not described here

>  <AC50>
> 10 µM

$$$$
>  <compound>
C=CCc1ccccc1OCC(O)CNC(C)C (centres undefined)

>  <system_tested>
Gamma-aminobutyric acid receptor subunit alpha-1 (Rattus norvegicus); note: assay procedure not described here

>  <AC50>
> 30 µM

$$$$
>  <compound>
CN1[C@@H]2CC[C@H]1C[C@@H](OC(c1ccccc1)c1ccccc1)C2

>  <system_tested>
Gamma-aminobutyric acid receptor subunit alpha-1 (Rattus norvegicus); note: assay procedure not described here

>  <AC50>
> 30 µM

$$$$
>  <compound>
Cc1oc(=O)oc1CN1CCN(c2cc3c(cc2F)c(=O)c(C(=O)O)c2n3C(C)S2)CC1 (centres undefined)

>  <system_tested>
Gamma-aminobutyric acid receptor subunit alpha-1 (Rattus norvegicus); note: assay procedure not described here

>  <AC50>
> 30 µM

$$$$
>  <compound>
Cc1ccc(S(=O)(=O)NC(=O)NN2CC3CCCC3C2)cc1 (centres undefined) [GLICLAZIDE]

>  <system_tested>
Gamma-aminobutyric acid receptor subunit alpha-1 (Rattus norvegicus); note: assay procedure not described here

>  <AC50>
> 10 µM

$$$$

Can you share its AC50? I mean this compound: CCC(C)n1ncn(-c2ccc(N3CCN(c4ccc(OCC5COC(Cn6cncn6)(c6ccc(Cl)cc6Cl)O5)cc4)CC3)cc2)c1=O (centres undefined)
> 30 µM

Now the same for CCC1(CC)C(=O)NCC(C)C1=O (centres undefined)
> 30 µM

Now the same for CC(C)C(=O)c1c(C(C)C)nn2ccccc12
5.7 µM

Now the same for COc1ccc(CCN(C)CCCC(C#N)(c2cc(OC)c(OC)c(OC)c2)C(C)C)cc1OC (centres undefined)
> 30 µM

Now the same for CC(=O)OCC(=O)[C@@]12N=C(C)O[C@@H]1C[C@H]1[C@@H]3CCC4=CC(=O)C=C[C@]4(C)[C@H]3[C@@H](O)C[C@@]12C
> 30 µM

Now the same for CCCN1C[C@H](CSC)C[C@@H]2c3cccc4[nH]cc(c34)C[C@H]21 [PERGOLIDE]
> 30 µM

Now the same for CC(=O)Nc1ccc(O)cc1
> 30 µM

Now the same for C/C(O)=C(\C#N)C(=O)Nc1ccc(C(F)(F)F)cc1 [TERIFLUNOMIDE]
> 30 µM

Now the same for OC(CNCC(O)C1CCc2cc(F)ccc2O1)C1CCc2cc(F)ccc2O1 (centres undefined)
> 30 µM

Now the same for NC(=O)OCC(COC(N)=O)c1ccccc1 [FELBAMATE]
> 10 µM

Now the same for Cc1nnc2n1-c1ccc(Cl)cc1C(c1ccccc1Cl)=NC2
0.0011 µM

Now the same for C[C@](N)(Cc1ccc(O)c(O)c1)C(=O)O
> 10 µM

Now the same for COCCCN1CCC(NC(=O)c2cc(Cl)c(N)c3c2OCC3)CC1 [PRUCALOPRIDE]
> 30 µM

Now the same for Cc1cccc(Nc2ccccc2C(=O)O)c1C
> 10 µM

Now the same for Cc1nc([N+](=O)[O-])cn1-c1ccc([N+](=O)[O-])cc1
> 30 µM
